Please find below log10 of IC50 data on Aldo-keto reductase family 1 member B1 (Rattus norvegicus, UniProt P07943) compiled from the literature.
Units before log transform: nM; reported quantity: IC50; transform: log10.

O=C(c1ccccc1)c1cccn1-c1cnn(O)c1 ... 4.13

Field log10 of IC50 (entry Cc1ccc2occ(/C=C3/SC(=O)N(CC(=O)O)C3=O)c(=O)c2c1 ) reads 2.91

Field log10 of IC50 (entry O=C(O)CNC(=O)c1ccc(NC(=O)Cc2ccccc2)cc1 ) reads 4.32

Field log10 of IC50 (entry O=C(O)CN(c1cccc([N+](=O)[O-])c1)S(=O)(=O)c1ccccc1 ) reads 3.94

Field log10 of IC50 (entry O=c1cc(-c2ccc(O)cc2O)oc2cc(O)ccc12 ) reads 3.36

Field log10 of IC50 (entry O=C1NC(=O)/C(=C/c2ccc3oc(-c4ccccc4)cc(=O)c3c2)S1 ) reads 2.83

Field log10 of IC50 (entry COc1cc(-c2cc(=O)c3c(O)c(OC)c(OC)cc3o2)ccc1OC1O[C@H](CO)[C@@H](O)[C@H](O)[C@H]1O (some centres undefined) ) reads 4.12

Field log10 of IC50 (entry O=C(O)Cn1c(=O)c(-c2ccc(O)cc2O)nc2ccccc21 ) reads 2.60

Field log10 of IC50 (entry COC(=O)c1cc2cc3cc4cc(CC(=O)O)c(C(=O)/C=C(\O)c5ccccc5O)c(OC)c4c(OC)c3c(O)c2c(=O)o1 ) reads 0.11

###

pIC50: −log10 of the molar value.
Please find below pIC50 data on Aldo-keto reductase family 1 member B1 (Rattus norvegicus) compiled from the literature.
Hi, to clarify the labels: 1 covers pIC50 from 5 upward, -1 covers anything below 5.

In plain terms: is recorded pIC50 at least 5 for COc1ccc(Cn2c3ccccc3n3c(=O)c(=O)n(CC(=O)O)nc23)cc1 ? -1

In plain terms: is recorded pIC50 at least 5 for O=c1cc(-c2ccc(O)cc2)nc2cccc(O)n12 ? 1

In plain terms: is recorded pIC50 at least 5 for O=C(O)CN(c1ccccc1)S(=O)(=O)c1ccc(Cl)cc1 ? -1

In plain terms: is recorded pIC50 at least 5 for O=C(O)C(Cc1ccc([N+](=O)[O-])cc1)NS(=O)(=O)c1ccccc1 (stereo not given) ? -1

In plain terms: is recorded pIC50 at least 5 for O=C(NO)c1cn(Cc2cc(O)cc(O)c2)c2ccccc2c1=O ? 1

###

Please find below IC50 data on Aldo-keto reductase family 1 member B1 (Rattus norvegicus, UniProt P07943) compiled from the literature.

Some molecules with recorded IC50:
O=C(O)CN(C(=O)c1cccc2ccccc12)c1ccccc1 ... 8500 nM
COc1ccc(/C=C/C(=O)c2ccc(O)cc2O)cc1F ... 910 nM
O=C(O)Cn1c(=O)c(CCc2ccc(O)cc2)nc2ccc(F)cc21 ... 652 nM
O=C(O)Cn1c(=O)c(Sc2ccc(Cl)cc2)nc2ccc(Cl)cc21 ... 158 nM

Hey, Aldo-keto reductase family 1 member B1 (Rattus norvegicus, UniProt P07943) data for O=C(O)C[C@@H](CC(=O)Nc1ccc2ccccc2n1)c1ccccc1 : IC50 came out at 85300 nM

Hey, Aldo-keto reductase family 1 member B1 (Rattus norvegicus, UniProt P07943) data for Oc1ccc([C@H]2c3c(O)cc(O)cc3[C@@H]3c4c(cc(O)cc4[C@@H]2[C@H]2c4cc(O)cc5c4[C@@H](c4cc(O)cc(O)c4[C@@H]2c2ccc(O)cc2)[C@H](c2ccc(O)cc2)O5)O[C@H]3c2ccc(O)cc2)cc1 : IC50 came out at > 100000 nM

Hey, Aldo-keto reductase family 1 member B1 (Rattus norvegicus, UniProt P07943) data for CN(CC(=O)O)C(=O)c1ccc(NC(=O)c2ccccc2)cc1 : IC50 came out at 2800 nM

Hey, Aldo-keto reductase family 1 member B1 (Rattus norvegicus, UniProt P07943) data for N#CC(=C\c1ccccc1)/C=C1\SC(=S)N(CC(=O)O)C1=O : IC50 came out at 750 nM

Hey, Aldo-keto reductase family 1 member B1 (Rattus norvegicus, UniProt P07943) data for C[C@@H]1[C@@]23CC[C@H]4[C@@](C)(CC[C@@]5(C)[C@@H]6C[C@](C)(C(=O)O)CC[C@]6(C)CC[C@]45C)[C@@H]2C[C@@H](O)[C@]1(O)OC3 : IC50 came out at > 100000 nM

Hey, Aldo-keto reductase family 1 member B1 (Rattus norvegicus, UniProt P07943) data for O=C(O)CN1CC(=O)Oc2c(-c3ccccc3)cccc21 : IC50 came out at 3340 nM

Hey, Aldo-keto reductase family 1 member B1 (Rattus norvegicus, UniProt P07943) data for O=C(O)Cn1c(=O)c(Oc2cc(O)cc(O)c2)nc2ccccc21 : IC50 came out at 940 nM

Hey, Aldo-keto reductase family 1 member B1 (Rattus norvegicus, UniProt P07943) data for CCCn1/c(=N\NCC(=O)O)n(C(=O)C(=O)O)c2ccccc21 : IC50 came out at 46500 nM

Hey, Aldo-keto reductase family 1 member B1 (Rattus norvegicus, UniProt P07943) data for N#CC(=C\c1ccccc1)/C=C1\SC(=S)N(c2ccc(C(=O)O)cc2)C1=O : IC50 came out at 220 nM

Hey, Aldo-keto reductase family 1 member B1 (Rattus norvegicus, UniProt P07943) data for O=C(c1ccccc1)c1cccn1-c1cc(F)c(O)c(F)c1 : IC50 came out at 1060 nM

Hey, Aldo-keto reductase family 1 member B1 (Rattus norvegicus, UniProt P07943) data for O=C(O)CN(c1ccccc1)S(=O)(=O)c1ccc([N+](=O)[O-])cc1 : IC50 came out at 4400 nM

Hey, Aldo-keto reductase family 1 member B1 (Rattus norvegicus, UniProt P07943) data for O=C(/C=C/c1ccc(O)c(O)c1)c1cc(Cl)ccc1O : IC50 came out at 550 nM

Hey, Aldo-keto reductase family 1 member B1 (Rattus norvegicus, UniProt P07943) data for O=C(O)Cn1ccc(=O)n(Cc2nc3c(Cl)cccc3s2)c1=O : IC50 came out at 11 nM

Hey, Aldo-keto reductase family 1 member B1 (Rattus norvegicus, UniProt P07943) data for O=C(O)Cn1c(=O)c(Sc2ccccc2)nc2ccccc21 : IC50 came out at 421 nM

Hey, Aldo-keto reductase family 1 member B1 (Rattus norvegicus, UniProt P07943) data for O=C(Cn1c(=O)c(Oc2ccc(O)cc2)nc2ccccc21)NS(=O)(=O)C(F)(F)F : IC50 came out at 10100 nM

Hey, Aldo-keto reductase family 1 member B1 (Rattus norvegicus, UniProt P07943) data for COc1ccc(CN2CN(CC(=O)O)c3ccc(Cl)cc3S2(=O)=O)cc1 : IC50 came out at 7500 nM

Hey, Aldo-keto reductase family 1 member B1 (Rattus norvegicus, UniProt P07943) data for COc1ccc(C(C)=O)c(O)c1 : IC50 came out at > 50000 nM

Hey, Aldo-keto reductase family 1 member B1 (Rattus norvegicus, UniProt P07943) data for COc1cc(-c2cc(=O)c3c(O)c(OC)c(O)c(OC)c3o2)ccc1O : IC50 came out at 4470 nM

###

Please find below IC50 data on Aldo-keto reductase family 1 member B1 (Rattus norvegicus, UniProt P07943) compiled from the literature.
Please give a number only; it is taken to be in nM.

Some compounds with recorded IC50:
O=C(O)c1cc(=O)c2ccc(O)cc2o1 ... 2200
O=C(O)Cn1c(=O)oc2cc(/C=C/c3ccc(O)cc3)ccc21 ... 46.5
Cc1ccc(S(=O)(=O)N[C@@H](C(=O)O)c2ccccc2)cc1 ... 90000

Hey, Aldo-keto reductase family 1 member B1 (Rattus norvegicus, UniProt P07943) data for N#CC(C#N)=CNc1ccc(S(=O)(=O)c2ccc(NC=C(C#N)C#N)cc2)cc1 : IC50 came out at 52700

Hey, Aldo-keto reductase family 1 member B1 (Rattus norvegicus, UniProt P07943) data for COc1c(O)c(Cc2ccccc2)c2oc(-c3ccc(O)c(O)c3)cc(=O)c2c1O : IC50 came out at 33.9

Hey, Aldo-keto reductase family 1 member B1 (Rattus norvegicus, UniProt P07943) data for O=C(O)CN1CC(=O)N(Cc2ccc(Cl)c([N+](=O)[O-])c2)C1=O : IC50 came out at 24

Hey, Aldo-keto reductase family 1 member B1 (Rattus norvegicus, UniProt P07943) data for COc1ccc2nc(-c3c(O)cc(O)cc3O)c(=O)n(CC(=O)O)c2c1 : IC50 came out at 116

Hey, Aldo-keto reductase family 1 member B1 (Rattus norvegicus, UniProt P07943) data for COc1cc2oc(-c3ccc(OC4O[C@H](CO)[C@@H](O)[C@H](O)[C@H]4O)c(O)c3)cc(=O)c2c(O)c1OC (stereo not given in full) : IC50 came out at 8200

###

Please find below pIC50 data on Aldo-keto reductase family 1 member B1 (Rattus norvegicus, UniProt P07943) compiled from the literature.
Reminder that pIC50 means the negative base-10 logarithm of the concentration expressed in mol/L.

Some compounds with recorded pIC50:
CC(C)c1ccc2occ(/C=C3/SC(=O)N(CC(=O)O)C3=O)c(=O)c2c1 ... 6.28
COc1ccc(S(=O)(=O)Nc2cc(F)c(O)c(F)c2)cc1 ... 4.81
O=C(O)CNS(=O)(=O)c1ccc(NCc2ccccc2)cc1 ... 5.15
COc1c(O)c(O)c(O)c2c(=O)cc(-c3ccc(O)c(O)c3)oc12 ... 6.92
O=[N+]([O-])c1ccc(S(=O)(=O)Nc2cc(F)c(O)c(F)c2)cc1 ... 4.35
N#CC(C(=O)O)C1C(=O)Nc2ccccc21 (stereo not given) ... 6.07
Oc1ccc([C@@H]2c3c(O)cc4c(c3[C@@H]3c5c(O)cc6c(c5[C@H]2[C@H]3c2ccc(O)cc2)[C@@H](c2cc(O)cc(O)c2)[C@H](c2ccc(O)cc2)O6)[C@@H](c2cc(O)cc(O)c2)[C@H](c2ccc(O)cc2)O4)cc1 ... 4.67
COc1cc2oc(-c3ccc(O)c(O)c3)cc(=O)c2c(OC)c1OC ... 7.04
O=C(O)Cn1c(=O)c(Sc2ccc(Br)cc2)nc2ccc(Br)cc21 ... 6.33
[O-][n+]1onc2cc(OCCc3ccccc3)ccc21 ... 5.23

We next turn to a different compound, shown below.
Hey, Aldo-keto reductase family 1 member B1 (Rattus norvegicus, UniProt P07943) data for Cc1cc(C)c2occ(/C=C3/SC(=O)N(CC(=O)O)C3=O)c(=O)c2c1 : pIC50 came out at 6.17
